- measurement_notes: Plasma pharmacokinetics after single intravenous and oral administration
- Type: in vivo, male Swiss Albino mice
- experimental_setup: male, Swiss Albino, mouse, iv, 1 mg/kg
Residues, ends and D or L forms follow the SMILES beside them.

molecule	value_units	half-life
CC(=O)N[C@@H](CO)C(=O)N[C@@H](CCCCN)C(=O)N[C@@H](CC(C)C)C(N)=O [Compound 1] (Ac-Ser-Lys-Leu-NH2)	h	10.6

###

- measurement_notes: Plasma pharmacokinetics after single intravenous and oral administration
- Assay type: in vivo, male Swiss Albino mice
- experimental_setup: male, Swiss Albino, mouse, iv, 1 mg/kg
Residues, ends and D or L forms follow the SMILES beside them.

compound	AUC(0-t) (ng·h/mL)
CC(=O)N[C@@H](CO)C(=O)N[C@@H](CCCCN)C(=O)N[C@@H](CC(C)C)C(N)=O [Compound 1] (Ac-Ser-Lys-Leu-NH2)	1210
